- systemName: HPEPT1 (Homo sapiens, UniProt P46059)
- Sequence (P46059 whole entry): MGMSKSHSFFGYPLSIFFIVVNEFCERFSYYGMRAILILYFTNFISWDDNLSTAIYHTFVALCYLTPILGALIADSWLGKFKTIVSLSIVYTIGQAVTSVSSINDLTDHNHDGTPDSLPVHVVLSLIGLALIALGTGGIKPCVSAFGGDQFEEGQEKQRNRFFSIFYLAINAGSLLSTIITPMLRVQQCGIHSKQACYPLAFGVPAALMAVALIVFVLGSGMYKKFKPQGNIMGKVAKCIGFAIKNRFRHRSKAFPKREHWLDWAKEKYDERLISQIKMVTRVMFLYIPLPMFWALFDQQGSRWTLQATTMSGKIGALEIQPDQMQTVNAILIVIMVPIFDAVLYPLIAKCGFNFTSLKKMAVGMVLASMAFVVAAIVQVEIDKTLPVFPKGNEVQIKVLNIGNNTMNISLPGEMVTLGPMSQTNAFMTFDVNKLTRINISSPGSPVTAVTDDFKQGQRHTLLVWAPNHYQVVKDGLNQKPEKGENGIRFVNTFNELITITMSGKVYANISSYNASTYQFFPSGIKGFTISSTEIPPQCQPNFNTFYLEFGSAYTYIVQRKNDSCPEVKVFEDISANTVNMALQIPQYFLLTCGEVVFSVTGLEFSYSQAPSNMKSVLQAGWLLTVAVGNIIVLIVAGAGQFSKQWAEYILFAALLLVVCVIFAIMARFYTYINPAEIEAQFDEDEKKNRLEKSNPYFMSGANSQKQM
- method: Inhibition of radiolabelled Gly-Sar uptake in DC5 cells overexpressing HPEPT1
- Format: cell-based
- Design: expressed in transfected cells; host or cells: HeLa cells overexpressing hPEPT1 (called 'HPEPT1 infected cells')
- conditionDetails: inhibition of Gly-Sar uptake, DC5 cells overexpressing HPEPT1, 10 min, 37° C.; read-out: DC5 IC50
- Experimental: Amino acid prodrugs are tested for their interaction with the dipeptide transporter, HPEPT1, using tissue culture cells that are engineered to overexpress HPEPT1. […] The radioactive Gly-Sar peptide that is transported by the hpept1 is extracted from the cell layer with 200 ul of a one to one mixture of methanol and water and is counted in 4 ml of CytoScint ES™ scintillation cocktail (ICN). […]
pIC50: −log10 of the molar value.
So I've got a bunch of compounds here, and I need their pIC50 values.

Reference set, count: 2
# compound, result
measured = [
    ("Nc1ccn([C@@H]2O[C@H](CO)[C@@H](O)C2(F)F)c(=O)n1 [Gemcitabine, reference compound]", "< 1.70"),
    ("O=C(OCC1OC(n2cc(F)c(=O)[nH]c2=O)CC1OC(=O)C1CCCN1)C1CCCN1 (stereo not drawn) [3′,5′-di-O-prolyl-Floxuridine]", "< 1.70"),
]

Next, consider the following compound.
# input What is its pIC50 for HPEPT1 (Homo sapiens, UniProt P46059)? Entry: O=c1[nH]c(=O)n([C@H]2C[C@H](O)[C@@H](CO)O2)cc1F [Floxuridine, reference compound]
# output < 1.70
